Measured Binding signal (MFI) accompanies every entry in the list below.
# Study System: T1, MERS-CoV (NCoV/Novel coronavirus) Spike Protein fragment (RBD, aa 367-606, His Tag) (Sino 40071-V08B1) (MERS-CoV, UniProt K9N5Q8 367-606)
# T1 sequence: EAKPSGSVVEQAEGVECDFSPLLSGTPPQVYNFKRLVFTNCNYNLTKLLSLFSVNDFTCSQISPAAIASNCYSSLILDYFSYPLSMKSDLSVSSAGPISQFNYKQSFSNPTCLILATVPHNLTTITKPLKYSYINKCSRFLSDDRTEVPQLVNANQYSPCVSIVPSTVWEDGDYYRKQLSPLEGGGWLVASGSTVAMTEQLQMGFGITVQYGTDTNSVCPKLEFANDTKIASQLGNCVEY
# Protocol Text: Luminex bead assay, supernatant
The reply should contain only the number, in MFI.

Example cases with answers are listed next.
mAb10986 (antibody, V domains shown) VH: EVQLVESGGGLVQPGGSLRLSCAASEFTVSSNYMSWVRQAPGKGLEWVSVIYSGGSTFYADSVKGRFTISRDNSKNTLYLQMNSLRAEDTAVYYCARALPYGDLHFDYWGQGTLVTVSS VL: QSVLTQPPSVSGAPGQRVTISCTGSSSNIGTGYDVHWYQQLPGTAPKLLIYGNTNRPSGVPDRFSGSKSGTSASLAITGLQAEDEADYYCQSYDSSLSDSYVFGTGTKVTVLG; 27
mAb10914 (antibody, V domains shown) VH: EVQLVESGGGLVQPGGSLRLSCAASGLIVSRNYMIWVRQAPGKGLEWVSVIYSGGSTFYADSVKGRFTISRHNSKNTLYLQMNSLRAEDTAVYYCARDLGTGGMDVWGQGTTVTVSS VL: DIQLTQSPSFLSASVGDRVTITCWASQGISSYLAWYQQKPGKAPKLLIYAASTLQSGVPSRFSGSGSGTEFTLTISSLQPEDFATYYCQQLNSYPLTFGGGTKVEIKR; 31

As a next step, examine the binder that follows.
Param item = mAb10984 (antibody, V domains shown) VH: EVQLVESGGGLVQPGGSLRLSCAASGLTVNRNYMSWVRQAPGKGLEWVSLIYSGGSTYYADSVKGRFTISRDNSKNTLYLQMNSLRLEDTAVYYCARGELGIPYGMDVWGQGTTVTVSS VL: QSVLTQPPSVSAAPGQKVTISCSGSSSNIGNNYVSWYQQLPGTAPKLLIYDNNKRPSGIPDRFSGSKSGTSATLGITGLQTGDEADYYCGTWDSSLSAGVFGGGTKLTVLG ; retrieve measured Binding signal (MFI). 29
